Recorded inhibition at 50 µM for the following compounds
# TARGET_OR_TEST_SYSTEM: HCV NS3/4A protease (Hepatitis C virus genotype 1b, UniProt O92972)
# Construct: HCV NS3/4A protease diluent (10 ng, 10 μL); purchased AnaSpec 71126 (assay kit)
# Sequence (O92972 1658-1711): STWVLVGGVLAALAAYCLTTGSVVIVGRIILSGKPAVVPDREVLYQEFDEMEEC
# Sequence (O92972 1027-1657): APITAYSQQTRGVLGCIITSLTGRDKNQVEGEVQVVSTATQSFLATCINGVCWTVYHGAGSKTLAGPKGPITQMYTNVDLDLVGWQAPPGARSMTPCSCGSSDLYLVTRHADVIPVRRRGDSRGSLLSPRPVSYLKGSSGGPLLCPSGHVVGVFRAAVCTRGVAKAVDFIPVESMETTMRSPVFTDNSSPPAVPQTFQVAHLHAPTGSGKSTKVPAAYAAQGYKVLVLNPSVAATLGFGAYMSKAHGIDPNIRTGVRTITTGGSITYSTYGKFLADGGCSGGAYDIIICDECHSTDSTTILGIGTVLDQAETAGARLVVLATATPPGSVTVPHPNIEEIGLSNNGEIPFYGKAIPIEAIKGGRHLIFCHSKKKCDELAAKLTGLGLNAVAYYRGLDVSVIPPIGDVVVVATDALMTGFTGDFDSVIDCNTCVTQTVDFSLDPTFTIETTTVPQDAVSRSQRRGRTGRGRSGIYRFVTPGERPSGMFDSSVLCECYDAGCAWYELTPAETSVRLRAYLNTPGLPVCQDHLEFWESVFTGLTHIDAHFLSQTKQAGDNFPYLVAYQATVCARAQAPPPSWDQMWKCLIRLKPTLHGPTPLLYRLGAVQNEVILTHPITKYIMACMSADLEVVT
# EXPERIMENT_DESCRIPTION: HCV NS3/4A protease assay (SensoLyte 490 kit)
# CONDITION_LABEL: inhibition percentage at 50 μM in biochemical protease assay, mean of duplicate wells
# value in %; strip the unit string

Look over these answered cases.
Oc1ccc2cc(Br)ccc2c1/C=N/c1nc[nH]n1 [Compound 12]: 53
O=C(NC(C(=O)N/N=C/c1ccc(O)cc1O)c1n[nH]c(=O)c2ccccc12)c1ccccc1 (stereo not drawn) [Compound 2]: 77.9

Item CCCCC(CC)C(=O)Nc1nnc(Cc2ccc(OC)cc2)s1 (stereo not drawn) [Compound 15] has what recorded inhibition at 50 µM?
41.8

====

Recorded IC50 for the following compounds
# Test system: HCV replicon, Huh7 (NS3-5B) cells
# EXPERIMENT_DESCRIPTION: cell-based HCV replicon assay (luciferase)
# Design: species or system Hepatitis C virus genotype 1b
# CONDITION_LABEL: Hepatitis C virus, genotype 1b, Huh-7, 48 h, Huh7 (NS3-5B) cells, 48 h incubation, luciferase readout
# value in µM; strip the unit string

Cc1ccc(O)c(/C=N/NC(=O)C2C(=O)NCC2c2ccccc2)c1 (stereo not drawn): 13.4
O=C(COC(=O)c1cccc(N2C(=O)C3C4c5ccccc5C(c5ccccc54)C3C2=O)c1)c1ccc(Br)cc1 (stereo not drawn): 9.42

Continue with the next compound.
Item O=C(NC(C(=O)N/N=C/c1ccc(O)cc1O)c1n[nH]c(=O)c2ccccc12)c1ccccc1 (stereo not drawn) has what recorded IC50?
11.2
